- EXPERIMENTAL_TARGET: Cytochrome P450 2C9 (Homo sapiens)
- Sequence (P11712 whole entry): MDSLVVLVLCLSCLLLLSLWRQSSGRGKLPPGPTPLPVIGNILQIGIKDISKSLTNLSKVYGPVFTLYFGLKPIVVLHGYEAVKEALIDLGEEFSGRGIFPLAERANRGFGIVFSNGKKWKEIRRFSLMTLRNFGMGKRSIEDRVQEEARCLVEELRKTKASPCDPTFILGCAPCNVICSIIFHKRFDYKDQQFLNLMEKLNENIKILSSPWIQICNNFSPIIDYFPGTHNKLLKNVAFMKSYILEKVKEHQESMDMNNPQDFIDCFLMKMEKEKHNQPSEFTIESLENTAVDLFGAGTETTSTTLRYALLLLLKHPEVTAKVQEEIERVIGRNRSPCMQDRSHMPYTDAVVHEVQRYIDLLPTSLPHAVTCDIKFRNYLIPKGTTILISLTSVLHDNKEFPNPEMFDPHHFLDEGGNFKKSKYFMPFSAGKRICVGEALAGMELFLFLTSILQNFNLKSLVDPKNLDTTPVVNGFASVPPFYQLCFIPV
- TEST_PROTOCOL: Inhibition of CYP2C9 (unknown origin)
- Type: ADME
pIC50: −log10 of the molar value.
QUANTITY_NAME: pIC50

INSERT INTO assay_data (smiles_representation, experimental_target, quantity_name, value_measured) VALUES
  ('CC(C)c1csc(NC(=O)C2c3ccccc3Oc3ccccc32)n1', 'Cytochrome P450 2C9 (Homo sapiens)', 'pIC50', 5.68);

====

Catalogue of %max readings, one per entry.
- EXPERIMENTAL_TARGET: Metabotropic glutamate receptor 1 (Rattus norvegicus) (UniProt P23385)
- Sequence (P23385 19-1199 limits assumed): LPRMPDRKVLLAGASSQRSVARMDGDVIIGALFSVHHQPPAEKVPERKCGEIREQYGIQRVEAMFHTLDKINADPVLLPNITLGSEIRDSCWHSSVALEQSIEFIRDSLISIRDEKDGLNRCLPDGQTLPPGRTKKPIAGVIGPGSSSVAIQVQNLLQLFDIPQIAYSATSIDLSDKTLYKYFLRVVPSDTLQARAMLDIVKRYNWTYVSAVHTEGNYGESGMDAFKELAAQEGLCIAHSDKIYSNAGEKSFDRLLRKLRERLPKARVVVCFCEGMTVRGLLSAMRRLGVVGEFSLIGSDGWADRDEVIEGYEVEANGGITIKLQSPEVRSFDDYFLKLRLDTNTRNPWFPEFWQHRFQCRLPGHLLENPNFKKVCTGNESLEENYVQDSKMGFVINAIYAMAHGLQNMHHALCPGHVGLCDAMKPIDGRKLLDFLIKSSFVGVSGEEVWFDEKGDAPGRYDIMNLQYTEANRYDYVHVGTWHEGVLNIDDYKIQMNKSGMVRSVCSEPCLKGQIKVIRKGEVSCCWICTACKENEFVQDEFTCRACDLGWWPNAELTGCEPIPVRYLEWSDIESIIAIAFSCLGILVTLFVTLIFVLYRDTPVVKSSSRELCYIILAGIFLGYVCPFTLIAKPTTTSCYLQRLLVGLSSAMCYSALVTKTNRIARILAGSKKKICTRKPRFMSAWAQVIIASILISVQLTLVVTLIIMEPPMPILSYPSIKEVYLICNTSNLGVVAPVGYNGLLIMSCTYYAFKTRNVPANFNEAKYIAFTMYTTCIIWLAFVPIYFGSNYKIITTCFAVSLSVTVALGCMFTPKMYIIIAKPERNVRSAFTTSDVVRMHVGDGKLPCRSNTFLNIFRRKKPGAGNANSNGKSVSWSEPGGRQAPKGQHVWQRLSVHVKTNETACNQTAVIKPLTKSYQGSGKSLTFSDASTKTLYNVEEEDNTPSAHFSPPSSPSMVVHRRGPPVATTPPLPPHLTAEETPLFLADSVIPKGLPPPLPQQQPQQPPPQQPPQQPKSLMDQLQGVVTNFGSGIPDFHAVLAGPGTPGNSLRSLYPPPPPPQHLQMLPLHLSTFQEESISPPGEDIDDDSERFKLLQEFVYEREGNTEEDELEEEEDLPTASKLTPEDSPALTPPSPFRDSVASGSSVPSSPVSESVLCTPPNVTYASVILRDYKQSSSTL
- TEST_PROTOCOL: Positive allosteric modulation of rat mGlu1 receptor assessed as increase in glutamate-induced calcium mobilization relative to glutamate
- Assay type: functional
QUANTITY_NAME: %max

INSERT INTO results (smiles_representation, value_measured) VALUES
  ('O=C(Nc1nc(C(F)(F)F)co1)C1c2ccccc2Oc2ccccc21', '109%'),
  ('CC(C)c1csc(NC(=O)C2c3ccccc3Oc3ccccc32)n1', '111%'),
  ('N#Cc1csc(NC(=O)C2c3ccccc3Oc3ccccc32)n1', '124%'),
  ('O=C(Nc1nccs1)C1c2ccccc2Oc2ccccc21', '111%');

====

- EXPERIMENTAL_TARGET: Metabotropic glutamate receptor 1 (Homo sapiens)
- TEST_PROTOCOL: Positive allosteric modulation of human mGlu1 receptor assessed as increase in glutamate-induced calcium mobilization
- Format: functional
- EXPERIMENTAL_PARAMETERS: read-out: EC50
- Sequence (Q13255 whole entry): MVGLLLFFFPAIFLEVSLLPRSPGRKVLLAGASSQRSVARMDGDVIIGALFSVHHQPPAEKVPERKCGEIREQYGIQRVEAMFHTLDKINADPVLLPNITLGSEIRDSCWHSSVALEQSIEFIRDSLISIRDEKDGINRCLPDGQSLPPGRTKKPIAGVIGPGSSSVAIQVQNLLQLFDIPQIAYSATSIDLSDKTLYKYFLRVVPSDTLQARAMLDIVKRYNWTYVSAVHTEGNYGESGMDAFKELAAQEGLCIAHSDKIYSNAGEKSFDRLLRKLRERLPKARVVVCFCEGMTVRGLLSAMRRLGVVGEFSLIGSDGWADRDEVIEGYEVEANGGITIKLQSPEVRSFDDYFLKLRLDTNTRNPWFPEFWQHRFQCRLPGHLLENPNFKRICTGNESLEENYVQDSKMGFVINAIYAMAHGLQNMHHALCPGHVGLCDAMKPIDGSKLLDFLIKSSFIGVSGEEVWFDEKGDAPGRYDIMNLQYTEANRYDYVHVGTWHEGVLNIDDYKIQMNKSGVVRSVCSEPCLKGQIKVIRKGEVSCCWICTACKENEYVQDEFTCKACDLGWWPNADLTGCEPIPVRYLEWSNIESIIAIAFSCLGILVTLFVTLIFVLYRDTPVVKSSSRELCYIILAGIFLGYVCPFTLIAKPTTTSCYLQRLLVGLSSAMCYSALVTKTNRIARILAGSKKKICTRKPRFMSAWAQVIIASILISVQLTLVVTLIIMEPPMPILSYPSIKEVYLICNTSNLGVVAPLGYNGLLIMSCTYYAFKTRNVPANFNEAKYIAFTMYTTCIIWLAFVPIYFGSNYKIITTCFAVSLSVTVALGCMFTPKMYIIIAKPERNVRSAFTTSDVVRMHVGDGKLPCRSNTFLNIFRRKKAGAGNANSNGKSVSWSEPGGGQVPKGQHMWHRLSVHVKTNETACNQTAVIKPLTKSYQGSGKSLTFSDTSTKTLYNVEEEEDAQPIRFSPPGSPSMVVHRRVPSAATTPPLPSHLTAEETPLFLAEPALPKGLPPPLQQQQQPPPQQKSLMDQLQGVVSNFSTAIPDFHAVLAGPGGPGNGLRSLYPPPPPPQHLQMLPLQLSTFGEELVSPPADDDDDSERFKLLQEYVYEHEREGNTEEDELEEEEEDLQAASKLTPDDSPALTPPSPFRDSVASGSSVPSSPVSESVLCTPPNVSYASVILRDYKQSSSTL
QUANTITY_NAME: EC50 (µM)

INSERT INTO assay_data (smiles_representation, experimental_target, value_units, censoring_operator, value_measured) VALUES
  ('CC(C)c1csc(NC(=O)C2c3ccccc3Oc3ccccc32)n1', 'Metabotropic glutamate receptor 1 (Homo sapiens)', 'µM', '=', 0.9),
  ('O=C(Nc1cncs1)C1c2ccccc2Oc2ccccc21', 'Metabotropic glutamate receptor 1 (Homo sapiens)', 'µM', '>', 10),
  ('N#Cc1csc(NC(=O)C2c3ccccc3Oc3ccccc32)n1', 'Metabotropic glutamate receptor 1 (Homo sapiens)', 'µM', '=', 0.71),
  ('O=C(Nc1nc2ccccc2s1)C1c2ccccc2Oc2ccccc21', 'Metabotropic glutamate receptor 1 (Homo sapiens)', 'µM', '=', 4.8),
  ('O=C(Nc1nccs1)C1c2ccccc2Oc2ccccc21', 'Metabotropic glutamate receptor 1 (Homo sapiens)', 'µM', '=', 1.4),
  ('Cc1nc(NC(=O)C2c3ccccc3Oc3ccccc32)sc1C', 'Metabotropic glutamate receptor 1 (Homo sapiens)', 'µM', '>', 10),
  ('O=C(Nc1ccccn1)C1c2ccccc2Oc2ccccc21', 'Metabotropic glutamate receptor 1 (Homo sapiens)', 'µM', '=', 1.7),
  ('Cc1nsc(NC(=O)C2c3ccccc3Oc3ccccc32)n1', 'Metabotropic glutamate receptor 1 (Homo sapiens)', 'µM', '=', 2.7);

====

- EXPERIMENTAL_TARGET: Metabotropic glutamate receptor 1 (Homo sapiens)
- TEST_PROTOCOL: Positive allosteric modulation of human mGlu1 receptor assessed as increase in glutamate-induced calcium mobilization relative to glutamate
- Type: functional
- Sequence (Q13255 19-1194 limits assumed): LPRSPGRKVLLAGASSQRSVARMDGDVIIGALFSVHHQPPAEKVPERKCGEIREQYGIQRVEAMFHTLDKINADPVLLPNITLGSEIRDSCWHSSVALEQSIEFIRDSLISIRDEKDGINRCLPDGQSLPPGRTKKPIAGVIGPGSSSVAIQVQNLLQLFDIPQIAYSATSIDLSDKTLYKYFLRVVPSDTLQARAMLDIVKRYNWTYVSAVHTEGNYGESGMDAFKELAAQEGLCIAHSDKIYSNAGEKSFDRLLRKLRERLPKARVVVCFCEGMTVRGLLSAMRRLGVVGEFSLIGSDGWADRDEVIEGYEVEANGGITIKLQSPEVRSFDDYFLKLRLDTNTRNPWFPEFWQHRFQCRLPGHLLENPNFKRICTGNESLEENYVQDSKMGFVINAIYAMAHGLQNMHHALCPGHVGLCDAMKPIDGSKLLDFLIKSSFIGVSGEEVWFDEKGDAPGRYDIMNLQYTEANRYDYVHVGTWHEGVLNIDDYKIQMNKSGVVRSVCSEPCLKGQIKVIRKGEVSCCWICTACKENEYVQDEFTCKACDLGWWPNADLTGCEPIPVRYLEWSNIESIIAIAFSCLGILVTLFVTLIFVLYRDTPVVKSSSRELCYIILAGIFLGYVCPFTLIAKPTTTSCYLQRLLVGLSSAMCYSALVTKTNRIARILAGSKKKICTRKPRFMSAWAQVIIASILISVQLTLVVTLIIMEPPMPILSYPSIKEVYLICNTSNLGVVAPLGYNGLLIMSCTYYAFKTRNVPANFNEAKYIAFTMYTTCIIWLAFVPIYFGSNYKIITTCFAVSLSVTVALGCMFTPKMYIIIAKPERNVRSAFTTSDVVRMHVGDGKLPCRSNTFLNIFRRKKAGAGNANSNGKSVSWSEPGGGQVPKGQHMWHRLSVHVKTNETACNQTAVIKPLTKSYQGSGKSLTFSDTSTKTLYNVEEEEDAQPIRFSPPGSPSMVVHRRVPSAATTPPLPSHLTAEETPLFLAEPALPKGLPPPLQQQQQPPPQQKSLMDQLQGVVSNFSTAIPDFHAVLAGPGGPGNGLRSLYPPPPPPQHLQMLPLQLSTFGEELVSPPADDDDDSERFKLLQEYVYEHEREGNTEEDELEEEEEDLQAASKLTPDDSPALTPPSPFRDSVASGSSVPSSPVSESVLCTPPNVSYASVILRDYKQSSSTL
QUANTITY_NAME: %max

INSERT INTO assay_data (smiles_representation, value_measured) VALUES
  ('Cc1nsc(NC(=O)C2c3ccccc3Oc3ccccc32)n1', '101%'),
  ('CC(C)c1csc(NC(=O)C2c3ccccc3Oc3ccccc32)n1', '89%'),
  ('O=C(Nc1ccccn1)C1c2ccccc2Oc2ccccc21', '58%'),
  ('O=C(Nc1cncs1)C1c2ccccc2Oc2ccccc21', '54%'),
  ('N#Cc1csc(NC(=O)C2c3ccccc3Oc3ccccc32)n1', '110%'),
  ('O=C(Nc1nccs1)C1c2ccccc2Oc2ccccc21', '75%'),
  ('O=C(Nc1nc2ccccc2s1)C1c2ccccc2Oc2ccccc21', '96%'),
  ('Cc1nc(NC(=O)C2c3ccccc3Oc3ccccc32)sc1C', '68%');
